Molecular target: T1, BS69 coiled-coil MYND domain (BS69_(CC-MYND), amino acids 480-602) (human, UniProt Q15326 480-602)
T1 construct: BS69 (ZMYND11), human, amino acids 480-602 comprising the coiled-coil and MYND domains, amplified from pCI-BS69 (full length, isoform 1, 602 amino acids); Dimer by SEC-MALS; Expressed from pET49b+ as a GST-6xHis fusion; the tag was cleaved with 3C protease; also called BS69 CC-MYND domain; ZMYND11; source: E. coli Rosetta 2 (DE3) pLysS, purified (cobalt resin, 3C protease cleavage, GSTrap, …)
T1 sequence (looked up): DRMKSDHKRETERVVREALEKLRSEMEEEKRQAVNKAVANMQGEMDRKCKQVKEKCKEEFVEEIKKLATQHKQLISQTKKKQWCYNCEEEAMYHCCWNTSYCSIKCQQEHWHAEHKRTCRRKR
Experiment: ITC; EBNA2 polypeptide titrated into 0.1 mM BS69_(CC-MYND) in the cell, 19 x 2.0 μl injections, 25°C, 20 mM Tris-HCl, 100 mM NaCl, 1 mM TCEP, pH 7.5; one-site (one event) model; n calculated for monomeric proteins
Conditions: both partners purified

binder: type 2 EBNA2 polypeptide T2 EBNA2_(348-412) (domain or fragment, also called type 2 EBNA2_(348-412); source: E. coli Rosetta 2 (DE3) pLysS, purified (cobalt resin, 3C protease cleavage, Superdex 75); not shown: His6, N-terminal, cleaved) SMPQLSPVVSLHQGQGPENSPTPGPSTAGPVCRVTPSATPDISPIHEPESSDSEEPPFLFPSDWY
Kd, nM: 1210
